Target: HLA-A*02:01
Assay: IEDB peptide-MHC binding, purified MHC/competitive/radioactivity; bounds were set here for any values at or beyond the usual limits of such assays
Details: source organism: Plasmodium falciparum
Measured IC50 values are reported for all entries that follow.
outcomeMeasure: IC50 (nM)

residueSequence | outcomeMeasure | resultNumber
ILSVSSFLFV | IC50 | 208
GLLGVVSTV | IC50 | 24.3
